molecular target: D93, recombinant humanized IgG1 kappa antibody targeting denatured-collagen; assay: competition ELISA on coated human dn-collagen IV
Square brackets hold non-standard residues; d marks the D form. Ends that are not written are not given here. Hyp = O=C(O)[C@@H]1C[C@@H](O)CN1
Consider the following binders and their measured % inhibition of D93 binding to dn-collagen IV, peptide 100 µM readings.
measure_name: % inhibition of D93 binding to dn-collagen IV, peptide 100 µM

| binder | result |
| --- | --- |
| GP[Hyp]GP[Hyp]GPY [synthetic peptide No. 3, … (SEQ ID NO: 30)] | 94% |
| LPGPPGPPG (also: hydroxyproline at marked P positions, if any, marking lost) [synthetic peptide No. 18, … (SEQ ID NO: 22)] | 3% |
| LPGP[Hyp]GP[Hyp]G [synthetic peptide No. 20, … (SEQ ID NO: 21)] | 85.5% |
| GPXGPXG (contains hydroxyproline ('where P is hydroxyproline'); positions marked in the tables but lost in this text) [synthetic peptide No. 15, GPPGPPG (SEQ ID NO: 32)] | 64% |
| L[Hyp]GT[Hyp]G [synthetic peptide No. 8, LPGTPG (SEQ ID NO: 27)] | 4.5% |
| CTWPRHHTTDALL [non-collagen control peptide No. 6, … (SEQ ID NO: 39)] | 0% |
| LPGFPGC (also: hydroxyproline marking, if any, lost) [synthetic peptide No. 9, LPGFPGC (SEQ ID NO: 37)] | 1% |

These entries and their values trace back to patent US20080008707A1.
